Please provide measured log10(EC50) for the entries that follow.
molecular target: 5HT2A receptor (Homo sapiens, UniProt P28223); assay: cell-based; set-up: expressed in transfected cells; host or cells: HEK293T cells, transient co-transfection; details: 5HT2A Gq EC50 (nM), BRET2 Gαq dissociation, HEK293T cells
Sequence (P28223 whole entry): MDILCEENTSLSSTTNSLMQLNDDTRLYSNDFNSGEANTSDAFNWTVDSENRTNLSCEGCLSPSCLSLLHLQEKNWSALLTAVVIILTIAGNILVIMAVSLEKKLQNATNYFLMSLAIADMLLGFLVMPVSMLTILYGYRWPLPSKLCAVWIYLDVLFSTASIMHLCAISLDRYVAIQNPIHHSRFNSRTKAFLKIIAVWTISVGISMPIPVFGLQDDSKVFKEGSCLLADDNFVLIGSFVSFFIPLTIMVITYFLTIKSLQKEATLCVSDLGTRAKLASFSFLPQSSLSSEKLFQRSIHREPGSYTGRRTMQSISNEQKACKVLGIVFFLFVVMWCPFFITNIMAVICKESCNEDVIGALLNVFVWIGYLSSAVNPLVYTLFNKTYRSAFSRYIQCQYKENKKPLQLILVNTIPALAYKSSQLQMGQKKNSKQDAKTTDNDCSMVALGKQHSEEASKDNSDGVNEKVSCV
The base-10 logarithm of EC50, taken with EC50 in nM, is what appears here.

[
  {
    "MOLECULAR STRING": "CN1CCC=C(c2c[nH]c3ncc(F)cc23)C1",
    "log10(EC50)": 1.50
  }
]

For each of the items listed, what is its log10(EC50)?
1. Cn1cc(C2=CCCNC2)c2cccnc21
2. Cc1[nH]c2ccccc2c1C1=CCCN(C)C1
3. Cc1cccc2c(C3=CCCNC3)c[nH]c12
4. Clc1ccc2c(C3=CCCNC3)c[nH]c2c1

1. 2.58
2. 2.21
3. 2.37
4. 2.03

Provide log10(EC50), system 5HT2A receptor (Homo sapiens, UniProt P28223), entry `CCc1cccc2c(C3=CCCN(C)C3)n[nH]c12`
2.18

###

target: 5HT2A receptor (Homo sapiens, UniProt P28223); assay: cell-based; set-up: expressed in transfected cells; host or cells: HEK293T cells, transient co-transfection; settings: 5HT2A β-Arr EC50 (nM), BRET1 beta-arrestin2 recruitment, HEK293T
Please provide measured log10 of EC50 for the entries that follow.
The base-10 logarithm of EC50, taken with EC50 in nM, is what appears here.

[
  {
    "MOLECULE": "Fc1cccc2c(C34CNCC3C4)n[nH]c12 (stereo not shown)",
    "log10 of EC50": 2.81
  },
  {
    "MOLECULE": "Cc1cc(F)cc2c(C34CNCC3C4)c[nH]c12 (stereo not shown)",
    "log10 of EC50": 3.11
  },
  {
    "MOLECULE": "CC#CCN1CCC=C(c2n[nH]c3c(Cl)cccc23)C1",
    "log10 of EC50": 2.05
  }
]

For each of the items listed, what is its log10 of EC50?
1. CN1CCC=C(c2c[nH]c3nc(F)ccc23)C1
2. OCCN1CCC=C(c2n[nH]c3c(Cl)cccc23)C1
3. CCc1cccc2c(C3=CCCN(C4CC4)C3)n[nH]c12
4. Clc1cccc2c(C34CNCC3C4)n[nH]c12 (single isomer, unassigned) [Example 273]
5. CCCN1CCC=C(c2c[nH]c3c(C#N)cccc23)C1
6. N#Cc1cccc2c(C34CNCC3C4)n[nH]c12 (stereo not shown)
7. CCCN1CCC=C(c2c[nH]c3c(C)cc(F)cc23)C1

[3.02, 3.02, 3.01, 3.11, 2.70, 3.29, 2.49]

###

biological target: 5HT2A receptor (Homo sapiens, UniProt P28223); experiment: cell-based; design: expressed in transfected cells; host or cells: HEK293T cells, transient co-transfection; conditions: HEK-293T, BRET1 beta-arrestin2 recruitment, HEK293T cells, normalized to 5-HT; read-out: 5HT2A β-Arr Emax (%)
The threshold is inclusive: Emax of exactly 50% counts as YES; values below receive NO.

[
  {
    "MOLECULAR STRING": "C#CCN1CCC=C(c2n[nH]c3c(Cl)cccc23)C1",
    "TARGET OR TEST SYSTEM": "5HT2A receptor (Homo sapiens, UniProt P28223)",
    "LABEL VALUE": "YES"
  },
  {
    "MOLECULAR STRING": "CC(C)c1ccc2[nH]cc(C3=CCCNC3)c2c1",
    "TARGET OR TEST SYSTEM": "5HT2A receptor (Homo sapiens, UniProt P28223)",
    "LABEL VALUE": "NO"
  },
  {
    "MOLECULAR STRING": "COc1cccc2[nH]nc(C3=CCCN(C)C3)c12",
    "TARGET OR TEST SYSTEM": "5HT2A receptor (Homo sapiens, UniProt P28223)",
    "LABEL VALUE": "YES"
  },
  {
    "MOLECULAR STRING": "Clc1cccc2c(C3=CCCN(Cc4ccccc4)C3)c[nH]c12",
    "TARGET OR TEST SYSTEM": "5HT2A receptor (Homo sapiens, UniProt P28223)",
    "LABEL VALUE": "NO"
  }
]

Does the reported Emax for `CCN1CCC=C(c2c[nH]c3c(Cl)cccc23)C1` fall at or above the 50% mark?
YES

###

target: 5HT2A receptor (Homo sapiens); test: cell-based; parameters: expressed in transfected cells; host or cells: HEK293T cells, transient co-transfection; conditions: HEK-293T, BRET2 Gαq dissociation, HEK293T, normalized to 5-HT; read-out: 5HTA Gq Emax (%)
Please provide measured Emax for the entries that follow.
Numbers only, in %.

# annotated cases, reported Emax shown
[
  {
    "COMPOUND": "Cc1c(F)ccc2c(C3=CCCN(C)C3)c[nH]c12",
    "Emax (%)": 90.2
  },
  {
    "COMPOUND": "Clc1cccc2c(C3=CCNCC3)n[nH]c12",
    "Emax (%)": 63.4
  },
  {
    "COMPOUND": "Cc1ccnc2c(C3=CCCN(C)C3)c[nH]c12",
    "Emax (%)": 74.4
  },
  {
    "COMPOUND": "CN1CCCC=C(c2n[nH]c3c(Cl)cccc23)C1",
    "Emax (%)": 59.9
  },
  {
    "COMPOUND": "CC(C)N1CC=C(c2n[nH]c3c(Cl)cccc23)C1",
    "Emax (%)": 55.5
  },
  {
    "COMPOUND": "Cc1cc(Cl)cc2c(C3CNC3)c[nH]c12",
    "Emax (%)": 63.7
  },
  {
    "COMPOUND": "Cc1ccc2[nH]cc(C3=CCCNC3)c2n1",
    "Emax (%)": 112
  },
  {
    "COMPOUND": "Fc1cc(Cl)c2[nH]nc(C34CNCCC3C4(F)F)c2c1 (stereo not shown)",
    "Emax (%)": 83
  }
]

For each of the items listed, what is its Emax?
1. Fc1cccc2c(C34CCNCC3C4)n[nH]c12 (stereo not shown)
2. CN1CCC=C(c2n[nH]c3c(Cl)cc(F)cc23)C1

83.7
91.4

###

molecular target: 5HT2A receptor (Homo sapiens); assay: biochemical; assay type: binding; set-up: expressed in transfected cells; crude membranes; settings: secondary radioligand binding, Ki from IC50 by Cheng-Prusoff; read-out: 5HT2A Ki
Label 1 when Ki is strictly below 50 nM; at or above that, label 0.

[
  {
    "COMPOUND": "COc1cccc2[nH]nc(C3=CCCNC3)c12 [Example 83]",
    "TARGET OR TEST SYSTEM": "5HT2A receptor (Homo sapiens)",
    "LABEL VALUE": 0
  },
  {
    "COMPOUND": "Fc1ccc2[nH]nc(C3=CCCNC3)c2c1 [Example 85]",
    "TARGET OR TEST SYSTEM": "5HT2A receptor (Homo sapiens)",
    "LABEL VALUE": 1
  },
  {
    "COMPOUND": "CN1CCC=C(c2n[nH]c3cc(F)ccc23)C1 [Example 95]",
    "TARGET OR TEST SYSTEM": "5HT2A receptor (Homo sapiens)",
    "LABEL VALUE": 1
  },
  {
    "COMPOUND": "CCc1cccc2c(C3=CCCN(C)C3)c[nH]c12 [Example 52]",
    "TARGET OR TEST SYSTEM": "5HT2A receptor (Homo sapiens)",
    "LABEL VALUE": 1
  }
]

Field: below-cutoff. Rule: recorded Ki strictly less than 50 nM. Subject: Clc1ccc2[nH]cc(C3=CCCNC3)c2c1 [Example 22]
1

Field: below-cutoff. Rule: recorded Ki strictly less than 50 nM. Subject: CN1CCC=C(c2c[nH]c3c(Cl)cccc23)C1 [Example 44]
0

###

Please provide measured pKi for the entries that follow.
molecular target: 5HT2A receptor (Homo sapiens); assay: biochemical; type: binding; parameters: expressed in transfected cells; crude membranes; settings: secondary binding assay, Cheng-Prusoff; read-out: 5HT2A Ki
One number for each entry, as −log10 of the molar value.

[
  {
    "MOLECULE": "C1=C(c2c[nH]c3cnccc23)CNCC1 [Example 142]",
    "TARGET OR TEST SYSTEM": "5HT2A receptor (Homo sapiens)",
    "MEASURED RESULT": 6.82
  }
]

For each of the items listed, what is its pKi?
1. CN1CCC=C(c2n[nH]c3c(Cl)ccc(F)c23)C1 [Example 132]
2. Fc1ccc2c(C34CNCC3C4)c[nH]c2c1 (centres unmarked) [Example 281]
3. CN1CC=C(c2c[nH]c3c(Cl)cccc23)C1 [Example 210]
4. CN1CCC=C(c2c[nH]c3c(Cl)c(F)ccc23)C1 [Example 128]
5. Clc1cccc2c(C34CNCC3C4)c[nH]c12 (single isomer, unassigned) [Example 278]
6. C=CCc1cccc2c(C3=CCCN(C)C3)c[nH]c12 [Example 257]
7. Clc1cccc2c(C34CNCC3C4)c[nH]c12 (single isomer, unassigned) [Example 277]
8. Fc1cc(F)c2[nH]cc(C3CNC3)c2c1 [Example 264, 3-(azetidin-3-yl)-5,7-difluoro-1H-indole]

[7.07, 7.21, 7.06, 7.82, 7.48, 7.01, 7.09, 7.01]

For each of the items listed, what is its pKi?
1. Fc1ccc(Cl)c2[nH]nc(C3=CCCNC3)c12 [Example 131]
2. CN1CCC=C(c2n[nH]c3c(Cl)cc(F)cc23)C1 [Example 130]

1. 7.32
2. 7.71
